testDescription: self-splicing fitness, log relative to wild type (ln ratio); higher = more splicing; Tetrahymena group I intron in knt gene, E. coli kanamycin selection, DiMSum; sequences stand for … in CUCUCU…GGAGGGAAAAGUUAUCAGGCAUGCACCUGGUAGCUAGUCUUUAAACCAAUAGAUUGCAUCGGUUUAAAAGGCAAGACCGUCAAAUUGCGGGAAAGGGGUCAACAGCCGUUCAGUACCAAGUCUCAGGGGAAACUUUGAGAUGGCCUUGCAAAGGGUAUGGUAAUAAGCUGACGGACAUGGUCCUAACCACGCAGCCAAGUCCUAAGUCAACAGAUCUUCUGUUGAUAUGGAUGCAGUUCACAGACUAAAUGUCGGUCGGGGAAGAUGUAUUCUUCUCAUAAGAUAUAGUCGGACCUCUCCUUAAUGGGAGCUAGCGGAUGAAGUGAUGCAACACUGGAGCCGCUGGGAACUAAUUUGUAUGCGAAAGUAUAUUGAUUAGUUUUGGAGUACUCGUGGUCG;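 further: selection with 25 µg/mL kanamycin versus none on LB agar overnight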
studyConditions: 37 °C
Would you please tag the item 1 when its self-splicing fitness (ln) is -2 or above, and -1 when it is below?

>  <residues>
GUCCAGCAAUAUUACGGGGU

>  <class>
-1

$$$$
>  <residues>
GGCAAGCAAUAUUACGGCGU

>  <class>
1

$$$$

Moving on to another sequence below.
Does CUAGAGCAAUAUUACGCUAA have a reported self-splicing fitness (ln) of at least -2?
-1

---

Give self-splicing fitness (ln) for every item shown.
testDescription: self-splicing fitness, log relative to wild type (ln ratio); higher = more splicing; Tetrahymena group I intron in knt gene, E. coli kanamycin selection, DiMSum; sequences stand for … in CUCUCU…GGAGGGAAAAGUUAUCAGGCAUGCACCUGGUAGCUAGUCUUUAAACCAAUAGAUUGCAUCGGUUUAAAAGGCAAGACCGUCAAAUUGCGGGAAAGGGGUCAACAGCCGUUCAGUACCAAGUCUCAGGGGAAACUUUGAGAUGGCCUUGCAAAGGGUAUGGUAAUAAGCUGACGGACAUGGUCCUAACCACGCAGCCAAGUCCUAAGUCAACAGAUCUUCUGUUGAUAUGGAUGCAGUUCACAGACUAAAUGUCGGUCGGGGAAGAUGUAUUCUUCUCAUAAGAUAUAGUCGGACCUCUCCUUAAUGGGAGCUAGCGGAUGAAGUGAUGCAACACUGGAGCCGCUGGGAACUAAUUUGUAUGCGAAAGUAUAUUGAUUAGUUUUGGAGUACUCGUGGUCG
studyConditions: 37 °C
One number for each entry.

>  <residues>
GCUGAGCAAUAUUACGACCA

>  <experimentalValue>
-1.57

$$$$
>  <residues>
GCAAAGCAAUAUUACGUUCA

>  <experimentalValue>
-0.534

$$$$
>  <residues>
CGUUAGCAAUAUUACGUGAU

>  <experimentalValue>
-2.45

$$$$
>  <residues>
AAGUAGCAAUAUUACGGCCA

>  <experimentalValue>
0.256

$$$$
>  <residues>
CAUUAGCAAUAUUACGGAAG

>  <experimentalValue>
-0.104

$$$$

Provide self-splicing fitness (ln) values for the following items, in order.
1. GACAAGCAAUAUUACGGACU
2. CCACAGCAAUAUUACGUGUC
3. CCACAGCAAUAUUACGUAAU
4. CCAUAGCAAUAUUACGAGCU

0.137
-2.68
-2.41
-2.9

Provide reported self-splicing fitness (ln) for each item, in the same order as listed.
1. CGACAGCAAUAUUACGUGGG
2. UGAGAGCAAUAUUACGAGGC
3. CGUGAGCAAUAUUACGCGCA
4. UCCAAGCAAUAUUACGAGGG
5. GUGAAGCAAUAUUACGCAAG

-1.54
-2.17
-0.382
-2.31
0.0285
